src = patent US20230126447A1

Experiment: Ocular tissue distribution and pharmacokinetics, 7.5 and 15 mg/kg oral, pigmented Dutch Belted rabbits (Example 7)
Type: in vivo
Conditions: Dutch Belted, rabbit, plasma, oral, 15 mg/kg, DB rabbits, Day 15, 15 mg/kg BID, 6 hr; read-out: Mean Plasma Concentration

{"COMPOUND": "CC(=O)c1nn(CC(=O)N2C[C@H](F)C[C@H]2C(=O)Nc2cccc(Br)n2)c2ccc(-c3cnc(C)nc3)cc12 [Compound 1]", "concentration at 6 h [ng/mL]": 130}

----------
Assay: Ocular tissue and plasma pharmacokinetics, 50 mg/kg BID oral, Dutch Belted rabbits (Example 4/5)
Format: in vivo
Details: male, Dutch Belted, po; Choroid-RPE, DB rabbit, 50 mg/kg BID, Day 15
VALUE KIND: Cmax (ng/g)

{"CHEMICAL STRUCTURE": "CC(=O)c1nn(CC(=O)N2C[C@H](F)C[C@H]2C(=O)Nc2cccc(Br)n2)c2ccc(-c3cnc(C)nc3)cc12", "EXPERIMENTAL RESULT": 8020}

----------
Experiment: Ocular tissue and plasma pharmacokinetics, 50 mg/kg BID oral, Dutch Belted rabbits (Example 4/5)
Format: in vivo
Settings: male, Dutch Belted, rabbit, choroid-RPE, po, 50 mg/kg, DB rabbit, 50 mg/kg BID oral, Day 15, 24 h; read-out: Mean Choroid-RPE concentration

{"CHEMICAL STRUCTURE": "CC(=O)c1nn(CC(=O)N2C[C@H](F)C[C@H]2C(=O)Nc2cccc(Br)n2)c2ccc(-c3cnc(C)nc3)cc12", "concentration at 24 h, ng/g": 2100}

----------
Assay: Ocular tissue distribution and pharmacokinetics, 7.5 and 15 mg/kg oral, pigmented Dutch Belted rabbits (Example 7)
Format: in vivo
Conditions: male, Dutch Belted, rabbit, plasma, po, […], plasma, male DB rabbits, Group 2, Day 15, […] BID oral (15 mg/kg/day)
VALUE KIND: Cmax (ng/mL)

{"CHEMICAL STRUCTURE": "CC(=O)c1nn(CC(=O)N2C[C@H](F)C[C@H]2C(=O)Nc2cccc(Br)n2)c2ccc(-c3cnc(C)nc3)cc12", "EXPERIMENTAL RESULT": 440}

----------
Experiment: Ocular tissue distribution and pharmacokinetics, 7.5 and 15 mg/kg oral, pigmented Dutch Belted rabbits (Example 7)
Assay type: in vivo
Conditions: male, Dutch Belted, rabbit, retina, oral, […] BID, DB rabbits, Day 15, […] BID, 96 hr; read-out: Mean Retina Concentration

{"CHEMICAL STRUCTURE": "CC(=O)c1nn(CC(=O)N2C[C@H](F)C[C@H]2C(=O)Nc2cccc(Br)n2)c2ccc(-c3cnc(C)nc3)cc12", "concentration at 96 h": "13.9 ng/g"}

----------
Experiment: Ocular tissue and plasma pharmacokinetics, 50 mg/kg BID oral, Dutch Belted rabbits (Example 4/5)
Type: in vivo
Conditions: male, Dutch Belted, rabbit, iris-ciliary body, po, 50 mg/kg, DB rabbit, 50 mg/kg BID oral, Day 15, 96 h; read-out: Mean Iris-Ciliary Body concentration

{"CHEMICAL STRUCTURE": "CC(=O)c1nn(CC(=O)N2C[C@H](F)C[C@H]2C(=O)Nc2cccc(Br)n2)c2ccc(-c3cnc(C)nc3)cc12", "concentration at 96 h / ng/g": 2840}

----------
Experiment: Ocular tissue distribution and pharmacokinetics, 7.5 and 15 mg/kg oral, pigmented Dutch Belted rabbits (Example 7)
Type: in vivo
Settings: Dutch Belted, rabbit, plasma, oral, […], DB rabbits, Day 15, […] BID, 12 hr; read-out: Mean Plasma Concentration
VALUE KIND: concentration at 12 h

{"MOLECULE": "CC(=O)c1nn(CC(=O)N2C[C@H](F)C[C@H]2C(=O)Nc2cccc(Br)n2)c2ccc(-c3cnc(C)nc3)cc12 [Compound 1]", "VALUE KIND": "concentration at 12 h", "EXPERIMENTAL RESULT": "29.6 ng/mL"}

----------
Assay: Ocular tissue and plasma pharmacokinetics, 15 mg/kg single and BID oral, Dutch Belted rabbits (Example 3/5)
Format: in vivo
Details: Dutch Belted, rabbit, iris-ciliary body, po, 15 mg/kg, DB rabbit, 15 mg/kg BID oral, Day 15, 6 h; read-out: Mean Iris-Ciliary Body concentration
VALUE KIND: concentration at 6 h

{"COMPOUND": "CC(=O)c1nn(CC(=O)N2C[C@H](F)C[C@H]2C(=O)Nc2cccc(Br)n2)c2ccc(-c3cnc(C)nc3)cc12 [Compound 1]", "EXPERIMENTAL RESULT": "3510 ng/g"}

----------
Experiment: Ocular tissue and plasma pharmacokinetics, 50 mg/kg BID oral, Dutch Belted rabbits (Example 4/5)
Type: in vivo
Conditions: male, Dutch Belted, rabbit, vitreous humor, po, 50 mg/kg, DB rabbit, 50 mg/kg BID oral, Day 15, 6 h; read-out: Vitreous concentration
VALUE KIND: concentration at 6 h

{"COMPOUND": "CC(=O)c1nn(CC(=O)N2C[C@H](F)C[C@H]2C(=O)Nc2cccc(Br)n2)c2ccc(-c3cnc(C)nc3)cc12 [Compound 1]", "VALUE KIND": "concentration at 6 h", "EXPERIMENTAL RESULT": "28.7 ng/g"}

----------
Experiment: Phase 1 single ascending dose plasma pharmacokinetics in healthy volunteers
Type: in vivo, human
Conditions: human, po, 600 mg, Group 2, 600 mg single oral dose, individual subjects, read-out: Cmax

{"CHEMICAL STRUCTURE": "CC(=O)c1nn(CC(=O)N2C[C@H](F)C[C@H]2C(=O)Nc2cccc(Br)n2)c2ccc(-c3cnc(C)nc3)cc12", "UNITS LABEL": "ng/mL", "Cmax": 2180}

----------
Assay: Ocular tissue distribution and pharmacokinetics, 7.5 and 15 mg/kg oral, pigmented Dutch Belted rabbits (Example 7)
Assay type: in vivo
Settings: male, Dutch Belted, rabbit, iris-ciliary body (ICB), po, […], ICB (OU), male DB rabbits, Group 2, Day 15, […] BID oral (15 mg/kg/day)

{"CHEMICAL STRUCTURE": "CC(=O)c1nn(CC(=O)N2C[C@H](F)C[C@H]2C(=O)Nc2cccc(Br)n2)c2ccc(-c3cnc(C)nc3)cc12", "Cmax, ng/g": 943}

----------
Experiment: Ocular tissue distribution and pharmacokinetics, 7.5 and 15 mg/kg oral, pigmented Dutch Belted rabbits (Example 7)
Assay type: in vivo
Details: Dutch Belted, rabbit, retina, oral, 15 mg/kg, DB rabbits, Day 15, 15 mg/kg BID, 0 hr; read-out: Mean Retina Concentration
VALUE KIND: concentration at 0 h (ng/g)

{"MOLECULE": "CC(=O)c1nn(CC(=O)N2C[C@H](F)C[C@H]2C(=O)Nc2cccc(Br)n2)c2ccc(-c3cnc(C)nc3)cc12 [Compound 1]", "VALUE KIND": "concentration at 0 h", "UNITS LABEL": "ng/g", "EXPERIMENTAL RESULT": 45}

----------
Assay: Ocular tissue distribution and pharmacokinetics, 7.5 and 15 mg/kg oral, pigmented Dutch Belted rabbits (Example 7)
Assay type: in vivo
Conditions: Dutch Belted, rabbit, plasma, oral, […], DB rabbits, Day 1, […] single dose, 12 hr; read-out: Mean Plasma Concentration

{"CHEMICAL STRUCTURE": "CC(=O)c1nn(CC(=O)N2C[C@H](F)C[C@H]2C(=O)Nc2cccc(Br)n2)c2ccc(-c3cnc(C)nc3)cc12", "UNITS LABEL": "ng/mL", "concentration at 12 h": 14.8}

----------
Test: Ocular tissue distribution and pharmacokinetics, 15 mg/kg BID oral, nonpigmented New Zealand White rabbits (Example 7)
Type: in vivo
Conditions: male, New Zealand White, rabbit, plasma, po, 15 mg/kg, plasma, male NZW rabbits, Group 4, Day 15, 15 mg/kg/dose BID oral (30 mg/kg/day); read-out: AUC0-t
VALUE KIND: AUC(0-t) (ng·h/mL)

{"CHEMICAL STRUCTURE": "CC(=O)c1nn(CC(=O)N2C[C@H](F)C[C@H]2C(=O)Nc2cccc(Br)n2)c2ccc(-c3cnc(C)nc3)cc12", "UNITS LABEL": "ng·h/mL", "EXPERIMENTAL RESULT": 3490}

----------
Experiment: Ocular tissue and plasma pharmacokinetics, 15 mg/kg single and BID oral, Dutch Belted rabbits (Example 3/5)
Type: in vivo
Details: Dutch Belted, rabbit, vitreous humor, po, 15 mg/kg, Vitreous Humor, DB rabbit, 15 mg/kg BID, Day 15; read-out: Cmax

{"CHEMICAL STRUCTURE": "CC(=O)c1nn(CC(=O)N2C[C@H](F)C[C@H]2C(=O)Nc2cccc(Br)n2)c2ccc(-c3cnc(C)nc3)cc12", "Cmax": "15.4 ng/mL"}

----------
Experiment: Phase 1 single ascending dose plasma pharmacokinetics in healthy volunteers
Type: in vivo, human
Settings: human, po, 1200 mg, Group 3, 1200 mg single oral dose, read-out: Mean AUC(0-∞)
Description: This study was conducted in healthy human volunteers in a randomized, double-blind design. Compound 1 or placebo was administered as a single oral dose to twenty-eight healthy volunteers in three separate dose groups. […] Pharmacokinetic data from each volunteer is summarized in Table 29, and plasma concentration data is shown graphically in FIG. 19.

{"CHEMICAL STRUCTURE": "CC(=O)c1nn(CC(=O)N2C[C@H](F)C[C@H]2C(=O)Nc2cccc(Br)n2)c2ccc(-c3cnc(C)nc3)cc12", "UNITS LABEL": "ng·h/mL", "AUC(0-inf)": 13200}
